System: DMS 114 small cell lung
Experiment: NCI tumour cell line growth inhibition, 48 h
PARAMETER MEASURED: TGI (µM)
// note: answer is a bare numeric in µM

CCCCCCCSCC1OC(n2cnc3c(N)ncnc32)C(O)C1O (stereo not given)    71.1
CCCCCCCCCCNC(=S)OCCCC    45.8
Cc1cc(=O)[nH]c(NN2C(Cl)C(=O)C2c2c(O)ccc3ccccc23)n1 (stereo not given)    56

Request: Given the molecule Clc1ccc2c(Cl)nc(-c3ccccc3)nc2c1 , what is its reported TGI?
Response: 74

###

System: NCI-H460 lung
Assay: NCI tumour cell line growth inhibition, 48 h
PARAMETER MEASURED: TGI

Check out these entries, answers already filled in.
O=c1[nH]c(=O)n(C2OC(CO)C(O)C2O)cc1OCc1ccccc1 (stereo not drawn)    > 100 µM
O=c1[nH]cnc2c1ncn2C1SC(CO)C(O)C1O (stereo not drawn)    > 100 µM

Request: Can you look up TGI on NCI-H460 lung for Cc1cc(S(=O)(=O)Nc2nc(N)nc(N(C)C)n2)c(SC(C(=O)O)c2ccccc2)cc1Cl (stereo not drawn) ?
Response: > 10 µM

###

Tested on: OVCAR-5 ovarian
Test: NCI tumour cell line growth inhibition, 48 h
Below: a set of entries, each annotated with reported GI50.

Cc1cn2c(/C=N/N=C(N)N)c(-c3cc(Cl)sc3Cl)nc2s1    0.886 µM

Request: Field: GI50 (OVCAR-5 ovarian). Entry: Cc1nn(-c2ccccc2)c(C)c1/C=N/N1CCN(Cc2ccccc2)CC1
Response: > 100 µM

Request: Under OVCAR-5 ovarian: GI50 value of O=C(Nc1cccc(-n2cc(-c3ccncc3)c(-c3ccc(O)c(Cl)c3)n2)c1)c1ccc(N2CCOCC2)c(C(F)(F)F)c1 ?
Response: > 50 µM

Request: Fill in the recorded GI50 for this compound, with OVCAR-5 ovarian as test system: N=C(N)c1ccc(-c2ccc(-c3ccc(Cl)c(Cl)c3)o2)nc1
Response: 1.57 µM

###

Test system: ACHN renal
Assay: NCI tumour cell line growth inhibition, 48 h
PARAMETER MEASURED: TGI

N#Cc1nc(Nc2ccc(Cl)cc2)sc1N    23.6 µM
CC1=C(c2ccc(C)cc2)NC(=S)C(C)C(c2ccc(C)cc2)=N1 (configuration not stated)    > 100 µM
COC(=O)C1=C(C)N(NC(=O)c2cccc(Cl)c2)C(C)(O)C12CCOC2=O (configuration not stated)    > 100 µM
CCN1C(=O)C(N=[N+]=[N-])(c2ccccc2)C(=O)c2ccccc21 (configuration not stated)    > 100 µM
Cc1[nH]c2ccccc2c1C1=CC(=O)C=CC1=O    12.5 µM
CSc1n[nH]c2n[nH]c(C)c12    > 100 µM
C=CCN1C[C@@H](C)N([C@@H](c2ccccc2)c2ccc(C(=O)N(CC)CC)cc2)C[C@@H]1C    > 100 µM
N#Cc1c(-c2ccccc2)c(C#N)c(=S)n(C2OCC(O)C(O)C2O)c1N (configuration not stated)    > 100 µM
CCOc1ccc(N=Nc2c(-c3ccccc3)nn(C(=O)CC(=O)Nc3cccc(C)c3)c2-c2ccccc2)cc1    > 100 µM
Cc1n(-c2ccccc2)c2c([n+]1Cc1ccc([N+](=O)[O-])cc1)C(=O)c1ccccc1C2=O    13.9 µM

Request: Fill in: TGI of O=C(NCc1cccs1)OC1CC2CCC1C2 (configuration not stated) is ___
Response: > 100 µM

Request: Given O=c1[nH]c(=O)n(C2OC(CO)C(O)C2O)cc1OCc1ccccc1 (configuration not stated) , state its recorded TGI.
Response: > 100 µM

###

System: SK-OV-3 ovarian
Assay: NCI tumour cell line growth inhibition, 48 h
In this section we review reported TGI values for a set of compounds.

Reference set (5 entries):
CN1CC(S(=O)(=O)c2ccccc2)CC(S(=O)(=O)c2ccccc2)C1c1ccccc1 (stereo unspecified)    > 100 µM
COC(=O)C1CCC[C@H]2C(CO)=C(C)C(=O)[C@@H]12 (stereo partly specified)    > 100 µM
CCOC(=O)NN(C(=O)OCC)C(C(=O)c1ccc(Cl)cc1)=C1NCCN1    > 100 µM
Cc1cccc2c1NC(=O)C2(c1ccc(O)cc1)c1ccc(O)cc1    42 µM
COc1cc2c(cc1OC)CN1CCc3ccccc3CC1C2 (stereo unspecified)    > 100 µM

Request: Consider the compound Cc1ccc(-c2n[nH]c(=O)n2N2C(=O)C=CC2=O)cc1 and give its measured TGI.
Response: > 100 µM

Request: Can you look up the measured TGI of CC(=O)OC(C#N)CC(C)(C)/[N+]([O-])=[N+](\[O-])C(C)(C)CC(C#N)OC(C)=O (stereo unspecified) for me?
Response: > 100 µM

Request: Consider the compound COc1ccc(C(=O)c2cc(OC)c(OC)c(OC)c2)cc1/C=C/C(=O)c1ccc2c(c1)OCO2 and give its measured TGI.
Response: 41.1 µM

###

System: HCT-116 colon
Assay: NCI tumour cell line growth inhibition, 48 h
PARAMETER MEASURED: TGI

Cc1cccc2c(N)c3cccc(C(=O)NCCN4CCOCC4)c3nc12    24.9 µM
CCOP(=O)(OCC)/C(C#N)=C/c1cc(O)ccc1O    > 100 µM
COc1cc(/C=N/Nc2ncnc3c2cnn3Cc2ccccc2)ccc1O    > 25 µM
Cc1nc2sc(C(=O)Nc3cccc(Cl)c3C)c(N)c2cc1C(=O)c1ccccc1    > 50 µM

Request: // map COc1ccc(NC(=O)CC(=O)n2nc(-c3ccccc3)c(N=Nc3ccccc3C)c2-c2ccccc2)cc1 to recorded TGI (system: HCT-116 colon)
Response: 47.9 µM

Request: Form field: TGI recorded for CC1=C2c3ccccc3N(S(=O)(=O)c3ccccc3)[C@H]2[C@H](C(=O)N2C3CC4CC[C@@]3(CS2(=O)=O)C4(C)C)CC1 (some centres not stated) with HCT-116 colon (enter value)
Response: > 100 µM

Request: Recall the recorded TGI for O=C(O)c1nc2cc(C(F)(F)F)ccc2[nH]c1=O with HCT-116 colon and state it.
Response: > 100 µM

###

Quick reference for GI50 among some molecules
System: RPMI-8226 leukemia
Experiment: NCI tumour cell line growth inhibition, 48 h

Request: Lookup: GI50 / RPMI-8226 leukemia / Cc1cn2c(/C=N/N=C(N)N)c(-c3cc(Cl)sc3Cl)nc2s1
Response: 0.792 µM

###

System: SK-OV-3 ovarian
Assay: NCI tumour cell line growth inhibition, 48 h
Each entry below lists one item and its recorded TGI value.

O=[N+]([O-])c1ccc(NN=C2c3ccccc3Cc3ccccc32)c([N+](=O)[O-])c1    > 100 µM
O=C1C(Cl)=C(Nc2ccccn2)C(=O)c2ccccc21    26.9 µM

Request: Observed TGI on SK-OV-3 ovarian for CCc1cccc(CC)c1NC(=O)c1ccn2c1CCc1cnc(Nc3ccc(N4CCN(C)CC4)cc3OC)nc1-2 , please.
Response: 23.4 µM

###

System: NCI-H460 lung
Test: NCI tumour cell line growth inhibition, 48 h
Where a SMILES comes first, the peptide text is derived from it. [ ]: non-standard residue; d: D form. The star is where a group is joined. ξ: configuration not given here. ξW = NC(Cc1c[nH]c2ccccc12)C(=O)O; X30 = O=C(O)[C@H]1CCC[C@H]1N*; ξF = NC(Cc1ccccc1)C(=O)O; Boc = CC(C)(C)OC(=O)*; ξK = NCCCCC(N)C(=O)O; ξT = CC(O)C(N)C(=O)O; tBu = CC(C)(C)*
This listing pairs compounds with measured TGI.

Here is how some compounds turned out for TGI.
CC(C)N(C(=O)C12C3C4C5C3C1(C#N)C5C42)C(C)C (stereo not given)    > 100 µM
O=c1nc(-c2ccccc2)scc1-c1ccccc1    > 100 µM
COc1cc([N+](=O)[O-])c(OC)cc1-c1nc2n(c1/C(N)=N/C(=N)N)CCS2    > 100 µM
N#CC1C(=O)NC2=C(CCOc3c2ccc2ccccc32)C1c1ccc(F)cc1 (stereo not given)    > 100 µM
COc1cc(S(=O)(=O)Nc2ccc(-c3csc(/N=C\C=C\c4ccccc4)n3)cc2)ccc1Cl    > 100 µM
CCOC(=O)NN(C(=O)OCC)C(C(=O)c1ccc(Cl)cc1)=C1NCCN1    > 100 µM

Request: Param readout= TGI; system= NCI-H460 lung; entry= COC(=O)C1=C(C)N(NC(=O)c2cccc(Cl)c2)C(C)(O)C12CCOC2=O (stereo not given) ; returns value.
Response: > 100 µM

Request: Param readout= TGI; system= NCI-H460 lung; entry= O=C(/C=C/c1cccs1)c1ccc(Cl)s1 ; returns value.
Response: > 100 µM

Request: GET /values?readout=TGI&system=NCI-H460 lung&item= COc1cc(CCNc2nc3cc(N)cc(N)c3nc2-c2ccccc2)cc(OC)c1
Response: 10.9 µM

Request: Query for NCI-H460 lung: what TGI does the record show for N#CC(C(=O)C(=O)Nc1ccc(Cl)c(Cl)c1)c1ccc(Cl)cc1 (stereo not given) ?
Response: 96.7 µM

Request: Can you look up TGI on NCI-H460 lung for CC(OC(C)(C)C)C(NC(=O)C(CCCCNC(=O)OC(C)(C)C)NC(=O)C(Cc1c[nH]c2ccccc12)NC(=O)C(N)Cc1ccccc1)C(=O)NC(Cc1ccccc1)C(=O)N[C@@H]1CCC[C@@H]1C(=O)O (stereo not given in full) (H-[ξF][ξW][ξK](Boc)[ξT](tBu)[ξF]-X30) ?
Response: > 100 µM

Request: API: value(readout=TGI, system=NCI-H460 lung) for record Cc1nc2sc(C(=O)Nc3cccc(Cl)c3C)c(N)c2cc1C(=O)c1ccccc1
Response: 10.3 µM

Request: Please provide the recorded TGI for O=C(Nc1cccc(-n2cc(-c3ccncc3)c(-c3ccc(O)c(Cl)c3)n2)c1)c1ccc(N2CCOCC2)c(C(F)(F)F)c1 , tested on NCI-H460 lung.
Response: > 50 µM

Request: Query TGI on NCI-H460 lung for O=C1c2ccccc2CCC1(Br)Br
Response: 18.7 µM

Request: Write down the reported TGI of CS(=O)(=O)c1ccc(-c2[nH]c3ccc(F)cc3c2/C=N/NC(N)=S)cc1 , test system: NCI-H460 lung.
Response: > 100 µM
